The measurements presented in this section are drawn from PubChem BioAssay.

Test system: Noggin (protein binding on small-molecule microarray)
Experiment: Noggin binders on small-molecule microarray, primary screen, biochemical, 635/667 nm fluorescence (AID 1095);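 note: score merges 667 nm feature fluorescence with signal to noise over triplicate slides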
Settings: 635 nm fluorescence, higher = more signal
Output schema: class label derived from composite z-score. Mapping: low value (below 0.4), medium value (0.4 to below 1), high value (1 or more)

Here are 6 compounds together with their reported answers.
CC(C)[C@@H](OCc1ccccc1)[C@H](C)C=NOC[C@@H](O)[C@H]1O[C@@H]2OC(C)(C)O[C@@H]2[C@H]1O :: high value
COC(=O)[C@H](C)NC(=O)CC=C[C@@H](C)[C@@H]1C=C[C@H](O)[C@@H](CO)O1 :: high value
CC[C@@H](c1ccccc1)n1c(=O)n2n(c1=O)[C@H]1[C@H](O)[C@@H]3O[C@@H]3C(=NOCc3ccccc3)[C@H]1CC2 :: high value
COC(=O)[C@H](C)NC(=O)CCC1CC(OC(=O)NCc2cccc3ccccc23)CC2(CCCC(COC(=O)NCCOc3ccccc3)O2)O1 (stereo partly drawn) :: low value
CC(C)=CCCC(C)=CCON=C1C[C@@H](O)[C@@H](O)[C@@H]2[C@@H]3C(=O)N(C4CCCCC4)C(=O)[C@@H]3CC[C@H]12 :: high value
COC(=O)[C@H](C)NC(=O)CCC1CC(OC(=O)NCc2cccc3ccccc23)CC2(CCCC(COC(=O)NCc3cccc(C(F)(F)F)c3)O2)O1 (stereo partly drawn) :: medium value

Query: // bin(item) where item = COC(=O)[C@H](C)NC(=O)CCC1CC(OC(=O)NCc2ccc3c(c2)OCO3)CC2(CCCC(COC(=O)NCc3ccccc3)O2)O1 (stereo partly drawn)
Response: medium value

Query: // bin(item) where item = `CO[C@@H]1COC(=O)CC=C[C@H](C)[C@H](OC)COC(=O)[C@@H]2CCCN2C(=O)CC=C[C@H]1C`
Response: high value

Query: // bin(item) where item = O=C1CCCC=C1C(O)COCc1ccccc1 (stereo not drawn)
Response: low value

Query: // bin(item) where item = `CON=C(C)CCC(=O)OC[C@H]1O[C@H](C#Cc2ccccc2)C=C[C@@H]1Oc1ccc(C)cc1`
Response: low value

Query: // bin(item) where item = `O=C1C2=CC[C@H]3C(=O)N(C4CCCCC4)C(=O)[C@H]3[C@H]2[C@H](O)[C@@H]2O[C@H]12`
Response: low value

Query: // bin(item) where item = `C[C@H]1CC[C@H]2C(=O)O[C@H](CO)CN2[C@@H]1c1ccc(Br)cc1`
Response: medium value

Query: // bin(item) where item = `COC(OC)[C@@H](C)[C@H](OC)[C@@H](C)[C@H](OC)c1ccccc1`
Response: medium value

---

Experiment: small-molecule microarray binders of probe aShh, primary screen, biochemical, biotinylated probe, 635/667 nm fluorescence (AID 1114);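 note: probe is biotin-labelled aShh protein from a stem cell growth factor screen; measures binding of labelled protein to compounds printed on the slide; score merges feature fluorescence at 667 nm with signal-to-noise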
Details: higher = more signal
Record Yes whenever composite z-score is at -0.004 or higher; record No when lower.

Here are 3 molecules together with their reported answers.
COC(=O)[C@H](CCSC)NC(=O)CC=C[C@@H](C)CO :: No
C#CCCCON=C1C[C@@H](O)[C@@H](O)[C@@H]2[C@@H]3C(=O)N(CC)C(=O)[C@@H]3CC[C@H]12 :: No
CCN1C(=O)[C@H]2[C@H]3[C@H](O)[C@H](O)CC(=NOC(C)CN4CCCc5nc(C)c(C)cc54)[C@@H]3CC[C@H]2C1=O (some centres undefined) :: Yes

Query: In plain terms: is recorded composite z-score at least -0.004 for `O=C1C[C@@H](O)[C@@H](O)[C@@H]2[C@@H]3C(=O)N(Cc4ccccc4)C(=O)[C@@H]3CC[C@H]12` ?
Response: No

Query: In plain terms: is recorded composite z-score at least -0.004 for `CC(CCC(=O)OC[C@H]1O[C@H](C#Cc2ccccc2)C=C[C@@H]1Oc1ccc(C)cc1)=NO[C@H](C)c1cn([C@@H]2COC[C@H]2O)nn1` ?
Response: No

---

Biological target: Homeobox protein Hox-A13 (Mus musculus)
Assay: inhibitors of HoxA13-DNA binding, primary screen, biochemical, fluorescence polarization, labeled oligonucleotide (AID 1185)
Conditions: 15 min, higher = more signal, called active from +8 up or from −8 down
parameter: z-score
One number for each entry.

Cc1cc(C)c(-c2cc([C@H](C)ON=C[C@@H](C)[C@H](OCc3ccccc3)C(C)C)on2)c(C)c1 :: -0.415
O=C1[C@H]2CCn3c(=O)n(Cc4cc5c(cc4Cl)OCO5)c(=O)n3[C@H]2[C@H](O)[C@@H]2O[C@H]12 :: -0.543
CCc1cc2c(nc1CC)CCN(CCC(C)=NOCC[C@@H]1C=C[C@H](OC(C)=O)[C@@H](COC(C)=O)O1)C2 :: -5.38
CC(C)=NO[C@@H](C)c1cn([C@H](CO)Cc2ccccc2)nn1 :: 1.06
CC(C)CN1CCc2nc(-c3ccccc3)c3c(c2C1)CO[C@@H](C)C3 :: -4.73
CCN1C(=O)[C@H]2[C@H]3[C@H](O)[C@H](O)CC(=NNC(=O)OCc4ccccc4)[C@H]3CC[C@H]2C1=O :: -1.7
CC(C)=NO[C@H](C)c1cn([C@@H]2COC[C@H]2O)nn1 :: 0.141
CC(CCN1CCCCc2nc(C)c(C)cc21)=NO[C@H](C)c1cn([C@@H]2COC[C@H]2O)nn1 :: -1.36
O=C1C[C@@H](O)[C@@H](O)[C@@H]2[C@@H]3C(=O)N(Cc4ccccc4)C(=O)[C@@H]3CC[C@H]12 :: -1.12
CO[C@@H](C1CCCCC1)[C@@H](C)[C@H](OCc1cccc(Br)c1)[C@@H](C)CO :: -4.53

Quick batch: z-score for everything below.
1. COC(=O)[C@H](C)NC(=O)CCC1CC(OC(=O)NCc2cccc3ccccc23)CC2(CCCC(COC(=O)NCc3ccccc3)O2)O1 (some centres not stated)
2. C#CCCCON=C1[C@H]2CCn3c(=O)n([C@@H](CC)c4ccccc4)c(=O)n3[C@H]2[C@H](O)[C@@H]2O[C@H]12

Response:
[-1.39, -3.68]

---

Test: binders of probe aFGF2 on microarray, primary screen, stem cell growth factor project, biochemical, small-molecule microarray, fluorescence 635/667 (AID 1067);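 note: measures binding of biotinylated aFGF2 protein to printed compounds on slides; z-score merges feature fluorescence and signal-to-noise across triplicate slides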
Conditions: higher = more signal
Record criterion met whenever composite z-score is at -0.08 or higher; record criterion not met when lower.

CC(=O)OC[C@H]1O[C@H](CCON=C(C)CCN2CCCc3nc(C)c(C)cc32)C=C[C@@H]1OC(C)=O :: criterion met
CON=C(C)CCN1CCCCc2nc(C)c(C)cc21 :: criterion met
CCOC(=O)CCN1C(=O)[C@H]2[C@H]3[C@H](O)[C@H](O)CC(=O)[C@@H]3CC[C@H]2C1=O :: criterion not met
CC(C)CON=C1C[C@@H](O)[C@@H](O)[C@@H]2[C@@H]3C(=O)N(c4ccc(F)cc4F)C(=O)[C@@H]3CC[C@@H]12 :: criterion met

Query: In plain terms: is recorded composite z-score at least -0.08 for CCOC(=O)[C@H](CC(C)C)NC(=O)CCC1CC(OC(=O)NCCc2ccc(F)cc2)CC2(CCCC(COC(=O)NCCCN3CCCC3=O)O2)O1 (stereo partly specified) ?
Response: criterion not met

Query: In plain terms: is recorded composite z-score at least -0.08 for `CC(C)=CCCC(C)=CCON=C1C[C@@H](O)[C@@H](O)[C@@H]2[C@@H]3C(=O)N(c4cccc(Oc5ccccc5)c4)C(=O)[C@@H]3CC[C@H]12` ?
Response: criterion met

---

Tested on: XIP peptide (Xip251-270)
Assay: small-molecule binders of XIP peptide, primary screen, biochemical, small-molecule microarray, fluorescence 635/667 nm, 0.5 µg/mL protein (AID 1183)
Conditions: small-molecule microarray binding, fluorescence 635 nm; higher = more signal
parameter: composite z-score
Give bare numbers.

# example entries with known answers
CC(C)(C)N1C(=O)[C@H]2[C@H]3[C@H](O)[C@H](O)CC(=NNC(=O)OCc4ccccc4)[C@H]3CC[C@H]2C1=O :: 0.764
CCOC(=O)[C@H](Cc1ccccc1)NC(=O)CCC1CC(OC(=O)NCc2ccc3c(c2)OCO3)CC2(CCCC(COC(=O)NCCCN3CCCC3=O)O2)O1 (stereo partly drawn) :: 0.577

API: the following record is the query input.
Query: # lookup: composite z-score of `COc1ccc(OC[C@@H](CO)OC)cc1`
Response: -0.317

---

Test: binders from COS7 lysate, DM2A8 probe, primary screen, torsin A project, cell lysate, small-molecule microarray, fluorescence 635/667 (AID 1065)
Conditions: higher = more signal, COS7 lysate expressing mutant human TOR1A
Record satisfied whenever composite z-score is at 0.5 or higher; record not satisfied when lower.

Here are 3 molecules together with their reported answers.
CC(C)(C)N1C(=O)[C@H]2[C@H]3[C@H](O)[C@H](O)CC(=NOC[C@@H](O)COCc4ccco4)[C@H]3CC[C@H]2C1=O :: satisfied
COC(=O)[C@@H]1CC[C@H](C)[C@@H](c2ccc(Br)cc2)N1C[C@@H](O)CN=[N+]=[N-] :: not satisfied
CO[C@H]1COC(=O)[C@H](C)COC(=O)[C@H](C)NC(=O)CC=C[C@H]1C :: satisfied

Query: In plain terms: is recorded composite z-score at least 0.5 for `CCN1C(=O)[C@H]2[C@H]3[C@H](O)[C@H](O)CC(=NO[C@@H]4O[C@H](CO)[C@@H](O)[C@H](O)[C@H]4O)[C@H]3CC[C@H]2C1=O` ?
Response: satisfied

Query: In plain terms: is recorded composite z-score at least 0.5 for `O=C1[C@H]2[C@H]3[C@H](O)[C@H](O)CC(=NOC[C@@H](O)COCc4ccco4)[C@@H]3CC[C@H]2C(=O)N1c1cccc(Oc2ccccc2)c1` ?
Response: not satisfied

Query: In plain terms: is recorded composite z-score at least 0.5 for `CC(C)CON=C1[C@H]2CCn3c(=O)n(C)c(=O)n3[C@H]2[C@H](O)[C@@H]2O[C@H]12` ?
Response: not satisfied
